I'd appreciate it if you could supply pEC50 values for the items below.
# assay.target: TPK enzyme (Homo sapiens (Human))
# Sequence (Q9H3S4 whole entry): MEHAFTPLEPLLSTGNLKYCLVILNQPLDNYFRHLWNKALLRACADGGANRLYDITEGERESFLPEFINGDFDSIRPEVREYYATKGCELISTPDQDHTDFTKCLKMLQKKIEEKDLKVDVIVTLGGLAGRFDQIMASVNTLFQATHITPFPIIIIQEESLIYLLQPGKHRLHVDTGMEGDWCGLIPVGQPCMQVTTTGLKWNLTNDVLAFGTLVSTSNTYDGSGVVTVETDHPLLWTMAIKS
# assay.comment: TPK enzyme activity test
# run.conditions: promoting effect on TPK enzyme activity
Conceptually, pEC50 converts a concentration in mol/L into minus its log10.

[ask] Dear colleague, I am looking for the recorded pEC50 of the following molecule: Cc1ccc2[nH]c3c(=O)n(CCC(=O)N(C)CCNc4cccc(C(F)(F)F)c4)cnc3c2c1 [Compound 91]
[reply] 5.43

[ask] Likewise for O=C(CCn1cnc2c([nH]c3ccc(F)cc32)c1=O)N1CCC(Cc2ccc(F)cc2)CC1 [Compound 154] ?
[reply] 5.59

[ask] What do you get for O=C1CCc2ccc(OCCCCCN3c4ccccc4Sc4ccc(C(F)(F)F)cc43)cc2N1 [Compound 206] ?
[reply] 5.84

[ask] // next record Cc1ccc2c(c1)-c1nc(=O)n(CCCC(=O)N3CCC(Cc4ccc(F)cc4)CC3)cc1CO2 [Compound 220]
[reply] 5.41

[ask] Next molecule up: O=C(CCn1cnc2c([nH]c3ccc(C(F)(F)F)cc32)c1=O)N1CCN(c2cccc(C(F)(F)F)c2)CC1 [Compound 6]
[reply] 5.99

[ask] Would you mind doing COc1ccc2[nH]c(=O)c3c(ncn3CCCC(=O)N3CCN(c4cccc(Cl)c4Cl)CC3)c2c1 [Compound 231] as well?
[reply] 5.65

[ask] Try this molecule too: Cc1ccc2[nH]c3c(=O)n(CCC(=O)N4CCN(c5cc(Cl)ccc5Cl)CC4)cnc3c2c1 [Compound 2]
[reply] 5.69

----------
# assay.target: TPK enzyme (Homo sapiens (Human))
# assay.comment: TPK enzyme activity test
# Type: biochemical
# run.conditions: calculated with the effect of DMSO on TPK enzyme activity as 100%; read-out: Emax
test.readout: Emax (%)
Answer format: numeric, % implied, no suffix.

[ask] Report Emax for `COc1ccccc1N1CCN(C(=O)CCn2cnc3c([nH]c4ccc(C)cc43)c2=O)CC1` tested on TPK enzyme (Homo sapiens (Human)).
[reply] 135

[ask] How about `Cc1cccc2[nH]c3c(=O)n(CCC(=O)N4CCN(c5cccc(C(F)(F)F)c5)CC4)cnc3c12` ?
[reply] 180

[ask] Subsequent entry: `O=C1CCCCN1CCCCCCN1c2ccccc2Sc2ccc(C(F)(F)F)cc21`
[reply] 191

[ask] Try this compound too: `O=C(CCCn1cnc2c(c1=O)CCCc1ccccc1-2)N1CCN(c2cccc(C(F)(F)F)c2)CC1`
[reply] 148

[ask] Another compound: `COc1ccc2[nH]c(=O)c3c(c2c1)CN(CCCN1CCN(c2cccc(Cl)c2Cl)CC1)C3`
[reply] 137

[ask] And what about the compound `O=C1c2ccccc2CN1CCCN1CCSc2ccc(C(F)(F)F)cc21` ?
[reply] 132

[ask] Check `Cc1cccc(N2CCN(C(=O)CCn3cnc4c([nH]c5ccc(C)cc54)c3=O)CC2)c1` too.
[reply] 145

[ask] One more compound: `Cc1ccc2[nH]c3c(=O)n(CC(=O)NCCCN4CCN(Cc5ccccc5)CC4)ncc3c2c1`
[reply] 159

[ask] What do you have for `Cc1ccc2[nH]c3c(=O)n(CC(=O)N4CCN(c5ccc(F)cc5)CC4)cnc3c2c1` ?
[reply] 148

[ask] Repeat with `O=C(CCn1cnc2c([nH]c3ccc(C(F)(F)F)cc32)c1=O)N1CCN(Cc2cccc(C(F)(F)F)c2)CC1`
[reply] 162

[ask] Now give it for `Cc1ccc2[nH]c3c(=O)n(CCC(=O)N4CCN(c5ccccc5)CC4)cnc3c2c1` too.
[reply] 123

[ask] Also need `Cc1ccc2[nH]c3c(=O)n(CCC(=O)N(C)CCN(C)c4cccc(C(F)(F)F)c4)cnc3c2c1` , thanks.
[reply] 160

[ask] Another compound: `Cc1ccc2[nH]c3c(=O)n(CCC(=O)NCCNc4cccc(C(F)(F)F)c4)cnc3c2c1`
[reply] 132

[ask] // next record `Cc1ccc2[nH]c3c(=O)n(CCCC(=O)N4CCN(c5cccc(Cl)c5Cl)CC4)cnc3c2c1`
[reply] 145

[ask] Please give the result for `O=C(CCn1cnc2c(sc3ccccc32)c1=O)N1CCC(O)(c2cccc(C(F)(F)F)c2)CC1` too.
[reply] 160

[ask] Next record, please: `Cc1ccc2[nH]c3c(=O)n(CCC(=O)N4CCN(c5cccc(C(=O)O)c5)CC4)cnc3c2c1`
[reply] 122
